experiment: Physical stability under Accelerated Aging Conditions (AAC, 40° C./75% RH, 2 days), HT-XRPD; conditions: AAC 40° C./75% RH, 2 days, re-analyzed by HT-XRPD
PARAMETER_MEASURED: Physical Stability

Worked examples follow.
{"MOLECULE": "NC(=NC(=O)c1nc(Cl)c(N)nc1N)NCc1ccccc1.NC(=NC(=O)c1nc(Cl)c(N)nc1N)NCc1ccccc1.O=S(=O)(O)CCS(=O)(=O)O", "PARAMETER_MEASURED": "Physical Stability", "ASSAY_VALUE": "Unstable"}
{"MOLECULE": "NC(=NC(=O)c1nc(Cl)c(N)nc1N)NCc1ccccc1.O=CO", "PARAMETER_MEASURED": "Physical Stability", "ASSAY_VALUE": "Unstable"}
{"MOLECULE": "NC(=NC(=O)c1nc(Cl)c(N)nc1N)NCc1ccccc1.O=C(O)C=CC(=O)O [MAE3]", "PARAMETER_MEASURED": "Physical Stability", "ASSAY_VALUE": "Stable"}
{"MOLECULE": "NC(=NCc1ccccc1)NC(=O)c1nc(Cl)c(N)nc1N.O=S(=O)(O)c1ccc2ccccc2c1", "PARAMETER_MEASURED": "Physical Stability", "ASSAY_VALUE": "Stable"}
{"MOLECULE": "NC(=NC(=O)c1nc(Cl)c(N)nc1N)NCc1ccccc1.O=C(O)c1cc(O)ccc1O [GEN1]", "PARAMETER_MEASURED": "Physical Stability", "ASSAY_VALUE": "Stable"}

input: Quick one: Physical Stability of `Br.NC(=NC(=O)c1nc(Cl)c(N)nc1N)NCc1ccccc1` ?
output: Unstable

* * *

experiment: Crystallinity of salt forms by HT-XRPD; type: physicochemical; conditions: salt screen solid forms

{"MOLECULE": "NC(=NC(=O)c1nc(Cl)c(N)nc1N)NCc1ccccc1.O=C(O)c1cc2ccccc2c(Cc2c(O)c(C(=O)O)cc3ccccc23)c1O [PAM2]", "Crystallinity": "Poor"}
{"MOLECULE": "CC(C)(C)C(=O)O.NC(=NC(=O)c1nc(Cl)c(N)nc1N)NCc1ccccc1 [PIV1]", "Crystallinity": "Good"}

* * *

assay: Physical stability under Accelerated Aging Conditions (AAC, 40° C./75% RH, 2 days), HT-XRPD; conditions: AAC 40° C./75% RH, 2 days, re-analyzed by HT-XRPD
PARAMETER_MEASURED: Physical Stability

{"MOLECULE": "Br.Br.NC(=NC(=O)c1nc(Cl)c(N)nc1N)NCc1ccccc1", "Physical Stability": "Unstable"}
{"MOLECULE": "N=C(NCc1ccccc1)NC(=O)c1nc(Cl)c(N)nc1N.O=S(=O)(O)c1ccccc1", "Physical Stability": "Unstable"}
{"MOLECULE": "CCCC(=O)O.NC(=NC(=O)c1nc(Cl)c(N)nc1N)NCc1ccccc1 [BUT1]", "Physical Stability": "Stable"}
{"MOLECULE": "NC(=NC(=O)c1nc(Cl)c(N)nc1N)NCc1ccccc1.O=C(O)C=CC(=O)O [MAE2]", "Physical Stability": "Stable"}
{"MOLECULE": "NC(=NCc1ccccc1)NC(=O)c1nc(Cl)c(N)nc1N.O=C(O)c1cc(=O)[nH]c(=O)[nH]1", "Physical Stability": "Stable"}

input: Endpoint output: Physical Stability of NC(=NC(=O)c1nc(Cl)c(N)nc1N)NCc1ccccc1.O=C(O)C=Cc1ccccc1 [CIN1] . Value?
output: Stable

input: Consider next the molecule `CCCCC(=O)O.NC(=NC(=O)c1nc(Cl)c(N)nc1N)NCc1ccccc1` in the same way.
output: Stable

input: Next molecule up: `NC(=NCc1ccccc1)NC(=O)c1nc(Cl)c(N)nc1N.O=C(O)C=CC(=O)O`
output: Unstable

input: Same again, this time with CCCCCCCCCCCCCCCCCC(=O)O.NC(=NC(=O)c1nc(Cl)c(N)nc1N)NCc1ccccc1 [STE1]
output: Stable

input: Try this molecule next: `NC(=NC(=O)c1nc(Cl)c(N)nc1N)NCc1ccccc1.O=S(=O)(O)c1cccc2c(S(=O)(=O)O)cccc12`
output: Stable

input: Same question for CCCC(=O)O.NC(=NC(=O)c1nc(Cl)c(N)nc1N)NCc1ccccc1 [BUT2] please.
output: Unstable

input: Another: NC(=NC(=O)c1nc(Cl)c(N)nc1N)NCc1ccccc1.O=C(O)c1ccccc1O [SAL1]
output: Stable

input: Likewise for `NC(=NC(=O)c1nc(Cl)c(N)nc1N)NCc1ccccc1.O=S(=O)(O)c1ccccc1` ?
output: Unstable

input: And then `NC(=NC(=O)c1nc(Cl)c(N)nc1N)NCc1ccccc1.O=S(=O)(O)c1ccc2ccccc2c1` , what is it?
output: Stable

input: Would you kindly repeat that for `NC(=NC(=O)c1nc(Cl)c(N)nc1N)NCc1ccccc1.O=C(O)CCCCC(=O)O` ?
output: Unstable

input: For CCCCCCCCCCCCCCCCCC(=O)O.NC(=NC(=O)c1nc(Cl)c(N)nc1N)NCc1ccccc1 [STE2] then?
output: Stable

input: Thanks! And CCS(=O)(=O)O.NC(=NC(=O)c1nc(Cl)c(N)nc1N)NCc1ccccc1 [ESY1] ?
output: Stable

input: Would you kindly repeat that for `NC(=NC(=O)c1nc(Cl)c(N)nc1N)NCc1ccccc1.O=C(O)CC(O)(CC(=O)O)C(=O)O` ?
output: Unstable

input: // repeat for `NC(=NC(=O)c1nc(Cl)c(N)nc1N)NCc1ccccc1.O=C(O)CNC(=O)c1ccccc1` and report
output: Unstable

input: // repeat for NC(=NC(=O)c1nc(Cl)c(N)nc1N)NCc1ccccc1.O=C(O)c1cc2ccccc2c(Cc2c(O)c(C(=O)O)cc3ccccc23)c1O [PAM1] and report
output: Stable

input: Request: `NC(=NC(=O)c1nc(Cl)c(N)nc1N)NCc1ccccc1.O=C(O)c1cc(=O)[nH]c(=O)[nH]1`
output: Poor-

input: Proceed to `CS(=O)(=O)O.NC(=NC(=O)c1nc(Cl)c(N)nc1N)NCc1ccccc1`
output: Stable

input: Please give the result for NC(=NC(=O)c1nc(Cl)c(N)nc1N)NCc1ccccc1.O=C(O)c1ccco1 [FUR1] too.
output: Stable

input: Would you kindly repeat that for CCC(=O)O.NC(=NC(=O)c1nc(Cl)c(N)nc1N)NCc1ccccc1 [PRO4] ?
output: Unstable

input: Further, for CCS(=O)(=O)O.NC(=NC(=O)c1nc(Cl)c(N)nc1N)NCc1ccccc1 [ESY3] ?
output: Unstable
